method: Equilibrium solubility in various pharmaceutical excipients
Format: physicochemical
runParameters: PEG 300, organic solvent or mixture, thermodynamic from solid, PEG 300; read-out: Solubility
reportedProperty: solubility

Sample "CN(C)C/C=C/C(=O)Nc1ccc(C(=O)N[C@@]2(C)CCC[C@@H](Nc3ncc(Cl)c(-c4c[nH]c5ccccc45)n3)C2)nc1" ; solubility observed: > 19 mg/mL

----------
method: Equilibrium solubility in various pharmaceutical excipients
Assay type: physicochemical
runParameters: water, thermodynamic from solid, Water; read-out: Solubility
reportedProperty: solubility
A complete answer gives the number followed by the unit.

Just so you know, measured solubility for CN(C)C/C=C/C(=O)Nc1ccc(C(=O)N[C@@]2(C)CCC[C@@H](Nc3ncc(Cl)c(-c4c[nH]c5ccccc45)n3)C2)nc1 [Compound 1] came out at 0.12 µg/mL

----------
method: Equilibrium solubility in various pharmaceutical excipients
Type: physicochemical
runParameters: dehydrated alcohol, organic solvent or mixture, thermodynamic from solid, Dehydrated Alcohol; read-out: Solubility
reportedProperty: solubility (µg/mL)
The reply should contain only the number, in µg/mL.

Just so you know, measured solubility for "CN(C)C/C=C/C(=O)Nc1ccc(C(=O)N[C@@]2(C)CCC[C@@H](Nc3ncc(Cl)c(-c4c[nH]c5ccccc45)n3)C2)nc1" came out at 3600

----------
method: Equilibrium solubility in various pharmaceutical excipients
Assay type: physicochemical
runParameters: 50 mM phosphate buffer, pH 6, aqueous buffer, thermodynamic from solid, 50 mM Phosphate pH 6; read-out: Solubility
reportedProperty: solubility (µg/mL)
The response must be a number in µg/mL with no trailing unit.

In plain terms, "CN(C)C/C=C/C(=O)Nc1ccc(C(=O)N[C@@]2(C)CCC[C@@H](Nc3ncc(Cl)c(-c4c[nH]c5ccccc45)n3)C2)nc1" has a documented solubility of 1.9

----------
method: Equilibrium solubility in various pharmaceutical excipients
Type: physicochemical
runParameters: 20% Captisol, 0.1% Tween 80, pH adjusted with HCl, pH 3.5, aqueous with cosolvent or surfactant or cyclodextrin, thermodynamic from solid, 20% Captisol, 0.1% Tween 80, pH 3.5, (HCl); read-out: Solubility
reportedProperty: solubility

Form field solubility, entry "CN(C)C/C=C/C(=O)Nc1ccc(C(=O)N[C@@]2(C)CCC[C@@H](Nc3ncc(Cl)c(-c4c[nH]c5ccccc45)n3)C2)nc1" : > 10000 µg/mL

----------
method: Equilibrium solubility in various pharmaceutical excipients
Assay type: physicochemical
runParameters: t-butanol, organic solvent or mixture, thermodynamic from solid, t-Butanol; read-out: Solubility
reportedProperty: solubility (µg/mL)
All answers are understood in µg/mL, so give the number only.

For this molecule ( "CN(C)C/C=C/C(=O)Nc1ccc(C(=O)N[C@@]2(C)CCC[C@@H](Nc3ncc(Cl)c(-c4c[nH]c5ccccc45)n3)C2)nc1" ), measured solubility is 3200

----------
method: Equilibrium solubility in various pharmaceutical excipients
Type: physicochemical
runParameters: 20% Captisol in phosphate buffer, pH 5.5, aqueous with cosolvent or surfactant or cyclodextrin, thermodynamic from solid, 20% Captisol, pH 5.5 (phosphate buffer); read-out: Solubility
reportedProperty: solubility
The reply must contain the numeric value and, after it, the unit.

Record CN(C)C/C=C/C(=O)Nc1ccc(C(=O)N[C@@]2(C)CCC[C@@H](Nc3ncc(Cl)c(-c4c[nH]c5ccccc45)n3)C2)nc1 [Compound 1] . Reported solubility: 5900 µg/mL

----------
method: Equilibrium solubility in various pharmaceutical excipients
Type: physicochemical
runParameters: 10% Captisol in phosphate buffer, pH 5.5, aqueous with cosolvent or surfactant or cyclodextrin, thermodynamic from solid, 10% Captisol, pH 5.5 (phosphate buffer); read-out: Solubility
reportedProperty: solubility (µg/mL)
State just the number; it will be interpreted in µg/mL.

Record CN(C)C/C=C/C(=O)Nc1ccc(C(=O)N[C@@]2(C)CCC[C@@H](Nc3ncc(Cl)c(-c4c[nH]c5ccccc45)n3)C2)nc1 [Compound 1] , field solubility: 4600

----------
method: Equilibrium solubility in various pharmaceutical excipients
Type: physicochemical
runParameters: propylene glycol, organic solvent or mixture, thermodynamic from solid, Propylene Glycol; read-out: Solubility
reportedProperty: solubility (µg/mL)
Report as a plain number; the unit µg/mL is understood.

Quick note, solubility for "CN(C)C/C=C/C(=O)Nc1ccc(C(=O)N[C@@]2(C)CCC[C@@H](Nc3ncc(Cl)c(-c4c[nH]c5ccccc45)n3)C2)nc1" landed at 4000

----------
method: Equilibrium solubility in various pharmaceutical excipients
Assay type: physicochemical
runParameters: 50 mM KCl, pH 2, simulated gastric fluid, thermodynamic from solid, 50 mM KCl, pH 2; read-out: Solubility
reportedProperty: solubility (µg/mL)
// note: answer is a bare numeric in µg/mL

For record "CN(C)C/C=C/C(=O)Nc1ccc(C(=O)N[C@@]2(C)CCC[C@@H](Nc3ncc(Cl)c(-c4c[nH]c5ccccc45)n3)C2)nc1" the listed solubility is 3600

----------
method: Equilibrium solubility in various pharmaceutical excipients
Assay type: physicochemical
runParameters: 50 mM citrate, pH 4, aqueous buffer, thermodynamic from solid, 50 mM Citrate pH 4; read-out: Solubility
reportedProperty: solubility (µg/mL)
// units = µg/mL; emit number, no label

Value of measured solubility for the entry "CN(C)C/C=C/C(=O)Nc1ccc(C(=O)N[C@@]2(C)CCC[C@@H](Nc3ncc(Cl)c(-c4c[nH]c5ccccc45)n3)C2)nc1" : 3.7

----------
method: Equilibrium solubility in various pharmaceutical excipients
Assay type: physicochemical
runParameters: PEG 400, organic solvent or mixture, thermodynamic from solid, PEG 400; read-out: Solubility
reportedProperty: solubility

Record summary for CN(C)C/C=C/C(=O)Nc1ccc(C(=O)N[C@@]2(C)CCC[C@@H](Nc3ncc(Cl)c(-c4c[nH]c5ccccc45)n3)C2)nc1 [Compound 1] : reported solubility = > 19 mg/mL

----------
method: Equilibrium solubility in various pharmaceutical excipients
Assay type: physicochemical
runParameters: Tween 80, aqueous with cosolvent or surfactant or cyclodextrin, thermodynamic from solid, Tween 80; read-out: Solubility
reportedProperty: solubility (mg/mL)
State the answer as a number, implicitly in mg/mL.

Sure, the documented solubility for "CN(C)C/C=C/C(=O)Nc1ccc(C(=O)N[C@@]2(C)CCC[C@@H](Nc3ncc(Cl)c(-c4c[nH]c5ccccc45)n3)C2)nc1" is 18.3
